B1: Retinoic acid receptor beta, residues 85 to 161; numbered along this chain, P10826 (parent)
chain: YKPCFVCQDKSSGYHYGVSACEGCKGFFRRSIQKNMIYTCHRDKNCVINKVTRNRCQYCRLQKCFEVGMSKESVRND

# Variants of: B1
# procedure_details: abundance fitness (aPCA) (normalised: wild type 0, dead -1); higher = more abundant; growth selection in yeast, the domain comes from the species named
# test_conditions: Homo sapiens
Quick list: abundance fitness per entry.
Form rule: numeric answer, no unit written next to it.

Some entries whose results are on file:
Look at this variant and give its reported abundance fitness. C46W
-0.681

Look at this variant and give its reported abundance fitness. H15I
-0.348

Look at this variant and give its reported abundance fitness. F27G
-0.715

Look at this variant and give its reported abundance fitness. R29P
-0.77

Look at this variant and give its reported abundance fitness. N45F
-0.251

Look at this variant and give its reported abundance fitness. G23N
-0.063

Look at this variant and give its reported abundance fitness. K44R
0

Look at this variant and give its reported abundance fitness. Q62I
0.018

Look at this variant and give its reported abundance fitness. S12A
0.057

Look at this variant and give its reported abundance fitness. K25A
0.205

New cases:
Look at this variant and give its reported abundance fitness. V18E
-0.421

Look at this variant and give its reported abundance fitness. R60S
-0.583

Look at this variant and give its reported abundance fitness. G26C
-0.107

Look at this variant and give its reported abundance fitness. N49E
0.003

Look at this variant and give its reported abundance fitness. R53H
0.016

Look at this variant and give its reported abundance fitness. N35S
0.035

Look at this variant and give its reported abundance fitness. I37S
-0.085

Look at this variant and give its reported abundance fitness. C7M
-0.753

Look at this variant and give its reported abundance fitness. F5V
-0.154

src = the Human Domainome abundance scans (Beltran et al. 2025)
